system: NCI-H460; assay: NCI tumour cell line growth inhibition, 48 h
The source made the active and inactive calls. Rule as the data show it: active = GI50 up to about 1.1 µM and inactive = higher. Where a SMILES comes first, the peptide text is derived from it. The star is where a group is joined. Fmoc = O=C(OCC1c2ccccc2-c2ccccc21)*; Boc = CC(C)(C)OC(=O)*
PARAMETER: GI50

| COMPOUND | GI50 |
| --- | --- |
| Brc1ccc2c(-c3csc(-c4c[nH]c5ccc(Br)cc45)n3)c[nH]c2c1 | 2.44 µM (inactive) |
| Fc1ccc(C2NC(=S)NC3=C2CCOc2c3ccc3ccccc23)cc1 (configuration not stated) | 30.7 µM (inactive) |
| COC(OC)C(O)C1OC=CC1n1cnc2c(N)ncnc21 (configuration not stated) | > 100 µM (inactive) |
| O=C(O)c1nc2ccc(C(F)(F)F)cc2nc1NCc1ccc(Cl)c(Cl)c1 | 16 µM (inactive) |
| CC(C)(C)OC(=O)NCCCCC(NC(=O)C(Cc1c[nH]c2ccccc12)NC(=O)OCC1c2ccccc2-c2ccccc21)C(=O)O (configuration not stated) (Fmoc-Trp-Lys(Boc)-OH; configuration not given here) | 34.7 µM (inactive) |
| O=S(=O)(c1cc(Cl)ccc1Cl)N1CCN(c2cccc(Cl)c2)CC1 | > 100 µM (inactive) |

Next, consider the following compound.
Q: Return reported GI50. Input compound: CC(C)(C)OC(=O)N[C@H]1CC(O)c2ccccc2N(CC(=O)O)C1=O (some centres not stated)
A: > 100 µM (inactive)

###

tested on: NCI/ADR-RES; test: NCI tumour cell line growth inhibition, 48 h
Activity calls are given as the source filed them. Cut-off read from the data, not from the text of the source: active = GI50 up to about 1.1 µM and inactive = higher.
PARAMETER: GI50

Q: Return reported GI50. Input molecule: [N-]=[N+]=Nc1cccc(-c2nnc(Cl)cc2O)c1
A: > 100 µM (inactive)

Q: Return reported GI50. Input molecule: N#CC(C(=O)c1cccnc1Cl)c1nc2cc(C(F)(F)F)ccc2s1 (stereo unspecified)
A: 65.5 µM (inactive)

Q: Return reported GI50. Input molecule: COC(=O)C(CCSc1ccccc1)C(=O)OC
A: > 100 µM (inactive)

Q: Return reported GI50. Input molecule: CN(C)CCSc1cc(-c2ccccc2)c2ccccc2n1
A: 14.9 µM (inactive)

Q: Return reported GI50. Input molecule: CCOC(=O)N/N=C(\CC)OCC
A: > 100 µM (inactive)

###

tested on: DLD-1; experiment: NCI tumour cell line growth inhibition, 48 h
Activity calls are given as the source filed them. Rule as the data show it: active = GI50 up to about 1.1 µM and inactive = higher.
Hi there, use one of these labels in your reply, thanks! active, inactive

Worked examples follow.
| MOLECULE | TARGET DESC | LABEL |
| --- | --- | --- |
| CCOC(=O)c1nc(-c2ccccc2)oc1OCC | DLD-1 | inactive |
| CCCCCCCCCCCC(=O)OCC1OC(OC)C(NC(=O)N(CCCl)N=O)C(O)C1O (stereo not drawn) | DLD-1 | inactive |

Q: Test call for this molecule, please: O=C1CCC2(c3ccc(F)cc3)Nc3ccccc3N12 (stereo not drawn)
A: inactive

Q: Test call for this molecule, please: O=C1CCN2CCC(=O)c3c2c(cc2ccccc32)N1
A: inactive

###

// values below are reported GI50
test system: CCRF-CEM; assay: NCI tumour cell line growth inhibition, 48 h
Active and inactive are the calls of the source. Cut-off read from the data, not from the text of the source: active = GI50 up to about 1.1 µM and inactive = higher.

| MOLECULE | GI50 |
| --- | --- |
| Cc1ccc(/N=C2/C(c3ccccc3)=C(SC3=C(c4ccccc4)/C(=N/c4ccc(C)cc4)c4ccccc43)c3ccccc32)cc1 | > 100 µM (inactive) |
| CCCCCCCCCCCCCC(=O)OC(/C=C/C(C)C)C(O)C(O)C(OC)C(=O)NC1CCCCN(C)C1=O (centres undefined) | 3.95 µM (inactive) |
| CCOC(=O)C1Cc2ccc3c4c(ccc(c24)C1)CC(C(=O)OCC)C3 | > 100 µM (inactive) |

Q: Return reported GI50. Input molecule: COc1ccc(OC)c(/C=C/C(=O)C(C)(C)C)c1
A: 14.3 µM (inactive)

Reference source: ChEMBL document CHEMBL1201862
